# assay system: T1, TNFR1 (Homo sapiens, UniProt P19438)
# T1 chain: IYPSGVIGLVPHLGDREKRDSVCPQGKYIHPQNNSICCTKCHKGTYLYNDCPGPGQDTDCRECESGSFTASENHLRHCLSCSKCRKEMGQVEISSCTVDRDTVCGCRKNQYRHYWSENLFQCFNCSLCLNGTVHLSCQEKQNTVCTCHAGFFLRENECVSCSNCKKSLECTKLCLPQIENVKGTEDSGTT
# method description: yeast display SC50
Entry flag: yes (1) if apparent Kd (screen) reaches 1 nM; no (0) if it does not.

Record K16C (designed binder) SMEEEVEKAAKEYEKCKKEAIEKHLEKLKAKDKEAAERFLKELEEAAKEYAKDEAKTMSEEEAKRRAKKYKEKVLLSELSEEEQKEIKEAEEKLVRTILKYVEEAAK ; criterion: apparent Kd (screen) no lower than 1 nM. Met?
yes (1)

And for R96M (designed binder) SMEEEVEKAAKEYEKKKKEAIEKHLEKLKAKDKEAAERFLKELEEAAKEYAKDEAKTMSEEEAKRRAKKYKEKVLLSELSEEEQKEIKEAEEKLVMTILKYVEEAAK ?
yes (1)

And for A63Y (designed binder) SMEEEVEKAAKEYEKKKKEAIEKHLEKLKAKDKEAAERFLKELEEAAKEYAKDEAKTMSEEEYKRRAKKYKEKVLLSELSEEEQKEIKEAEEKLVRTILKYVEEAAK ?
yes (1)

And for E4M (designed binder) SMEMEVEKAAKEYEKKKKEAIEKHLEKLKAKDKEAAERFLKELEEAAKEYAKDEAKTMSEEEAKRRAKKYKEKVLLSELSEEEQKEIKEAEEKLVRTILKYVEEAAK ?
no (0)

And for E61H (designed binder) SMEEEVEKAAKEYEKKKKEAIEKHLEKLKAKDKEAAERFLKELEEAAKEYAKDEAKTMSEHEAKRRAKKYKEKVLLSELSEEEQKEIKEAEEKLVRTILKYVEEAAK ?
yes (1)

And for E12D (designed binder) SMEEEVEKAAKDYEKKKKEAIEKHLEKLKAKDKEAAERFLKELEEAAKEYAKDEAKTMSEEEAKRRAKKYKEKVLLSELSEEEQKEIKEAEEKLVRTILKYVEEAAK ?
yes (1)

And for A20R (designed binder) SMEEEVEKAAKEYEKKKKERIEKHLEKLKAKDKEAAERFLKELEEAAKEYAKDEAKTMSEEEAKRRAKKYKEKVLLSELSEEEQKEIKEAEEKLVRTILKYVEEAAK ?
no (0)

And for E34R (designed binder) SMEEEVEKAAKEYEKKKKEAIEKHLEKLKAKDKRAAERFLKELEEAAKEYAKDEAKTMSEEEAKRRAKKYKEKVLLSELSEEEQKEIKEAEEKLVRTILKYVEEAAK ?
no (0)

src = paper PMC12416549
